# Test system: HL-60(TB) leukemia
# method: NCI tumour cell line growth inhibition, 48 h; in the data active means GI50 below about 0.43 µM; inactive means the rest
Outcomes: 1 for active, -1 for inactive

1) Fc1ccc(-c2nnc3sc(-c4cccc(Cl)c4)nn23)cc1Cl -1
2) O=C(c1cc(-c2cc3c(cc2C(=O)N2Cc4ccccc4C[C@H]2CN2CCOCC2)OCO3)n2c1CCCC2)N(c1ccccc1)c1ccc(O)cc1 -1
3) Cc1c(Cl)cccc1NC(=O)c1sc2nc3c(cc2c1N)CCCCCC3 1
4) O=C(Nc1cc(Cl)ccc1O)c1cccc(NC2=C(Cl)C(=O)N(Cc3ccccc3)C2=O)c1 -1
5) Cc1nn2c(/C=C3/C(=O)Nc4ccc(Cl)cc43)c(-c3ccccc3)nc2s1 -1

Recorded values, source PubChem BioAssay (NCI).
